Molecular target: RAT OXYTOCIN RECEPTOR (Rattus norvegicus)
Sequence (P70536 1-388): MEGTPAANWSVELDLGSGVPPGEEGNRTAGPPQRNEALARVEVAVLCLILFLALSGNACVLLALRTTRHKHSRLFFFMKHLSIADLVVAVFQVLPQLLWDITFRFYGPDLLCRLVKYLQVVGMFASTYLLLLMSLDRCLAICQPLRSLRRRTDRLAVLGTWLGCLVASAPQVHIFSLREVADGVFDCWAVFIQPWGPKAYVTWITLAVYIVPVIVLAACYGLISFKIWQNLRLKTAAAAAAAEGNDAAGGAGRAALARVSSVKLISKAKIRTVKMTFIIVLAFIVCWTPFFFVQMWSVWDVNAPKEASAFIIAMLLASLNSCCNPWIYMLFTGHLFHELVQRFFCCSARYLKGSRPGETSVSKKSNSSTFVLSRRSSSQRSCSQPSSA
Starred links: 1 amine or outer side, 2 acyl side, 3 side chain; linkers in the order of their positions; H or OH if unused. Positions of bridges follow the written chain, without caps; N, C: chain ends. Non-standard residues stand in square brackets, D forms with d. Residues, ends and D or L forms follow the SMILES beside them. X1 = O=C(CC1(S[*:2])CCCCC1)[*:1]
measurement_type: Kd (nM)
Could you give me the number in nM? Just the number is fine.

Please report the measured Kd for CC[C@H](C)[C@@H]1NC(=O)[C@@H](Cc2c[nH]c3ccccc23)NC(=O)CC2(CCCCC2)SSC[C@@H](C(=O)N2CCC[C@H]2C(=O)N[C@@H](CCCNC(=N)N)C(=O)NCC(N)=O)NC(=O)[C@H](CC(N)=O)NC(=O)[C@H](CCC(N)=O)NC1=O [Compound C, [Pmp^1, D-Trp^2, Arg^8] oxytocin] ([dW]IQNCPRG-NH2; linker N-5 via X1) tested on RAT OXYTOCIN RECEPTOR (Rattus norvegicus).
4.93
